- System: HepG2 cells
- EXPERIMENT_NOTES: in vitro
- TEST_CONDITIONS: read-out: TC50 (µM) Hepatic stage (rodent) P. yoelii; 50% toxic concentration, MTT assay
QUANTITY: CC50

// worked examples, CC50 included
>>> df
                                   compound    result
0  COc1cc(C(O)C(C)Oc2c(OC)cc(C)cc2OC)cc(OC)c1OC (centres unmarked) [drawing 77]   49.5 µM
1  COc1cc(C)cc(OC)c1OC(C)C(O)c1ccc2c(c1)OC(F)(F)O2 (centres unmarked) [drawing 73]   53.7 µM
2  COc1cc(C(O)C(C)Oc2c(OC)cccc2OC)cc(OC)c1OC (centres unmarked) [drawing 75]  0.126 µM
3  COc1cc(C(O)C(C)Oc2c(OC)cc(-c3ccccc3)cc2OC)cc(OC)c1OC (centres unmarked) [drawing 79]   > 50 µM

**Query** // Input: COc1cc(C(O)C(C)Oc2c(OC)cccc2OC)cc(OC)c1OC (centres unmarked) [drawing 74] . Output its CC50 only.
**Result** 57.9 µM
